The values you see were collected from patent US20160083466A1.

# Target or system: T1, mouse IL-25 expressed with a C-terminal myc-myc-hexahistidine tag (mouse)
# T1 construct: also called Mouse IL-25-MMH; mIL-25-MMH
# T1 chain: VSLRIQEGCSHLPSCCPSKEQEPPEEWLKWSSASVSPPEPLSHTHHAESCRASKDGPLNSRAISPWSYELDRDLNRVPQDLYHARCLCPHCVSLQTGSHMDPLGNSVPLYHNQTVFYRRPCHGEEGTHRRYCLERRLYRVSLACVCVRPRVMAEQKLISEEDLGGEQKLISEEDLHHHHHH
# Assay info: SPR Biacore, antibody captured, 25C
Readout name: koff (s⁻¹)
# number only, unit s⁻¹ dropped from output

A selection of reference data follows.
H4H10907P (antibody, human IgG4, V domains shown, H4H prefix = human IgG4 Fc) VH: EVQLVESGGGLVQPGGSLRLSCAASGFTFSNYDIHWVRQVPGKGLEWISTIGSAGDTFYPGSVKGRFTISRENAKNSLYLQMNSLRAGDSAVYYCARGDNWNYVSWFFDLWGRGTLVTVSS VL: DIQLTQSPSFLSTSVGDRVTITCWASQDISSFLAWYQQKPGKAPKLLIYAASVLQSGVPSRFSGSGSGTEFTLTISSLQPEDFATYYCQQVNSYPITFGQGTRLEIK	0.0115
H4H10897P (antibody, human IgG4, V domains shown, H4H prefix = human IgG4 Fc) VH: QVQLQESGPGLVKPSETLSLTCTVSGGSISDYYWSWIRQPPGKGLEWIGHIYYSGSTNHNPSLKSRVAISVDTSKNQFSLRLYSVTAADTAVYYCARDGYSSSSGFYYFGMDVWGQGTTVTVSS VL: DIQLTQSPSFLSASVGDRVTITCWASQDINSYLAWYQQKPGKAPKLLIFAASTLQGGVPSRFSGSGSGTEFTLTISSLQPEDFATYYCQHLSSFPPTFGQGTRLEIK	0.00104

Q: Could you please provide reported koff for H4H10876P (antibody, human IgG4, V domains shown, H4H prefix = human IgG4 Fc) VH: QVQLVQSGAEVKKPGASVKVSCKASEYTFSNYGISWVRQAPGQGLEWLGWIGAYSGFTKYAQKVQDRITMTTDASTTTAYMELRNLRSDDTAVYYCARVGTGTDSYFDFWGQGTLVTVSS VL: DIQMTQSPSSLSASVGDRVTITCRASQNINSHLNWYQQKPGKAPKLLIYTASSLQSGVPLRFSGSGSGTDFTLTISSLQPEDFGIYICQQTYITPLTFGGGTKVEIK ? Thanks!
Ans: 9.89e-05
